Target: T1, human TMEM106B (human, UniProt Q9NUM4 2-274)
T1 construct: full-length, transiently expressed on HEK293 cells, or natively expressed on HeLa, U251 and A549 cells (the cell is named under assay); also the source of the Pepscan peptides; also called huTMEM106B; huTMEM
Test: FACS A549 10 ug/ml
# label = y if MFI >= 2000 MFI else n

TM-5 (antibody, V domains shown) VH: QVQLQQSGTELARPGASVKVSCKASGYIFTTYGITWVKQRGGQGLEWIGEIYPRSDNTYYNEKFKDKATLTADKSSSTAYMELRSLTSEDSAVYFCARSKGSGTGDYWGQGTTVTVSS VL: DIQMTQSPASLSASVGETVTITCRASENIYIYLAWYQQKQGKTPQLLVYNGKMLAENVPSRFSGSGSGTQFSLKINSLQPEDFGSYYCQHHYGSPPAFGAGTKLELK    y

## Task Is it the case that TM-31 (antibody, V domains shown, mouse IgG (hybridoma)) VH: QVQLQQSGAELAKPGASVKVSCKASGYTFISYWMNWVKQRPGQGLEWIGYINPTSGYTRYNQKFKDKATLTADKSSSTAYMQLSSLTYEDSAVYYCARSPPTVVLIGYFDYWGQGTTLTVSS VL: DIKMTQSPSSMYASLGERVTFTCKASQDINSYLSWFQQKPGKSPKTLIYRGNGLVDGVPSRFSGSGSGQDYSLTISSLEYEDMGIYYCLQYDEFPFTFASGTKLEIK has MFI reaching or exceeding 2000 MFI?
## Result n

## Task Is it the case that TM-13 (antibody, V domains shown) VH: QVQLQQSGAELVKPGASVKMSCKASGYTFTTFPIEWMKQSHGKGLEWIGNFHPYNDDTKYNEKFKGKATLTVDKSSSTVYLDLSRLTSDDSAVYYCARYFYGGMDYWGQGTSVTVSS VL: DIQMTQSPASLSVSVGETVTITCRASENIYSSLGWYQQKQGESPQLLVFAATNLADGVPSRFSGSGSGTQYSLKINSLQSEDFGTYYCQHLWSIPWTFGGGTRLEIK has MFI reaching or exceeding 2000 MFI?
## Result y
